Conditions: 303.15 K; 100 kPa; Liquid; vibrating tube
Please respond with reported mass density for every item in the list.
Respond with the bare value in kg/m3.

Given item CCCCn1cc[n+](C)c1.F[B-](F)(F)F [1-butyl-3-methylimidazolium tetrafluoroborate] , the value recorded as its mass density is 1198.09

For this molecule ( CCCCCCn1cc[n+](C)c1.F[B-](F)(F)F [1-hexyl-3-methylimidazolium tetrafluoroborate] ), measured mass density is 1141.99

Quick note, mass density for CCCCCCCC[n+]1ccn(C)c1.F[B-](F)(F)F [1-methyl-3-octylimidazolium tetrafluoroborate] landed at 1100.92

Entry CCn1cc[n+](C)c1.F[B-](F)(F)F [1-ethyl-3-methylimidazolium tetrafluoroborate] — recorded mass density = 1281.74

* * *

Settings: 318.15 K; 40000 kPa; Liquid; vibrating tube
reported_endpoint: mass density (kg/m3)
Expressed in kg/m3, but write only the number.

get_value(item= CCn1cc[n+](C)c1.F[B-](F)(F)F [1-ethyl-3-methylimidazolium tetrafluoroborate] , readout=mass density) returns 1287.8

mass density for CCCCCCn1cc[n+](C)c1.F[B-](F)(F)F [1-hexyl-3-methylimidazolium tetrafluoroborate] is 1150.92

The recorded mass density for CCCCCCCC[n+]1ccn(C)c1.F[B-](F)(F)F [1-methyl-3-octylimidazolium tetrafluoroborate] is 1110.72

Sample CCCCn1cc[n+](C)c1.F[B-](F)(F)F [1-butyl-3-methylimidazolium tetrafluoroborate] ; mass density observed: 1205.83

* * *

Conditions: 288.15 K; 40000 kPa; Liquid; vibrating tube
reported_endpoint: mass density (kg/m3)
State the answer as a number, implicitly in kg/m3.

Per the records, this compound ( CCn1cc[n+](C)c1.F[B-](F)(F)F [1-ethyl-3-methylimidazolium tetrafluoroborate] ) has mass density equal to 1309.54

Item: CCCCCCn1cc[n+](C)c1.F[B-](F)(F)F [1-hexyl-3-methylimidazolium tetrafluoroborate] | mass density: 1170.31

Item: CCCCn1cc[n+](C)c1.F[B-](F)(F)F [1-butyl-3-methylimidazolium tetrafluoroborate] | mass density: 1226.06

Just so you know, measured mass density for CCCCCCCC[n+]1ccn(C)c1.F[B-](F)(F)F [1-methyl-3-octylimidazolium tetrafluoroborate] came out at 1129.56

* * *

Give mass density for every item shown.
Details: 298.15 K; 40000 kPa; Liquid; vibrating tube
± gives the expanded uncertainty stated by the source.
Answer format reminder: number followed by unit.

Record CCCCn1cc[n+](C)c1.F[B-](F)(F)F [1-butyl-3-methylimidazolium tetrafluoroborate] , field mass density: 1219.15 ± 0.99 kg/m3

The recorded mass density for CCCCCCCC[n+]1ccn(C)c1.F[B-](F)(F)F [1-methyl-3-octylimidazolium tetrafluoroborate] is 1123.16 ± 0.94 kg/m3

Briefly, mass density measured for CCn1cc[n+](C)c1.F[B-](F)(F)F [1-ethyl-3-methylimidazolium tetrafluoroborate] : 1302.18 ± 1.7 kg/m3

Noted for CCCCCCn1cc[n+](C)c1.F[B-](F)(F)F [1-hexyl-3-methylimidazolium tetrafluoroborate] : its mass density reads 1163.75 ± 0.95 kg/m3

* * *

Conditions: 288.15 K; 8000 kPa; Liquid; vibrating tube
reported_endpoint: mass density (kg/m3)
Give the value in kg/m3 but do not write kg/m3 after it.

Record CCn1cc[n+](C)c1.F[B-](F)(F)F [1-ethyl-3-methylimidazolium tetrafluoroborate] , field mass density: 1296.59

Looking up CCCCCCn1cc[n+](C)c1.F[B-](F)(F)F [1-hexyl-3-methylimidazolium tetrafluoroborate] , I found its mass density recorded as 1156.19

mass density for CCCCn1cc[n+](C)c1.F[B-](F)(F)F [1-butyl-3-methylimidazolium tetrafluoroborate] is 1212.45

CCCCCCCC[n+]1ccn(C)c1.F[B-](F)(F)F [1-methyl-3-octylimidazolium tetrafluoroborate] has a reported mass density of 1115.03
